Let's look at some compounds and their measured speed of sound.
- testDetails: xn = mol fraction of the nth substance listed
- protocolConditions: 318.15 K; 100 kPa; Liquid; Single path-length method; x1 = 0.25
parameterMeasured: speed of sound (m/s)

>>> df
                                   compound  valueunits  quantitativeresult
0  C[N+](C)(C)Cc1ccccc1.[Cl-] [trimethylbenzylammonium chloride] + OCCOCCOCCO         m/s              1674.6
1  CCCC[N+](CCCC)(CCCC)Cc1ccccc1.[Cl-] [benzyltributylammonium chloride] + OCCOCCO         m/s                1602
2  CCCC[N+](CCCC)(CCCC)Cc1ccccc1.[Cl-] [benzyltributylammonium chloride] + OCC(O)CO         m/s              1726.8
3  C[N+](C)(C)Cc1ccccc1.[Cl-] [trimethylbenzylammonium chloride] + OCCO         m/s              1767.8
4  C[N+](C)(C)Cc1ccccc1.[Cl-] [trimethylbenzylammonium chloride] + OCC(O)CO         m/s              1884.6
5  C[N+](C)(C)Cc1ccccc1.[Cl-] [trimethylbenzylammonium chloride] + OCCOCCO         m/s                1693
6  CCCC[N+](CCCC)(CCCC)Cc1ccccc1.[Cl-] [benzyltributylammonium chloride] + OCCOCCOCCO         m/s              1599.8
7  CCCC[N+](CCCC)(CCCC)Cc1ccccc1.[Cl-] [benzyltributylammonium chloride] + OCCO         m/s              1620.1
